Entries and their measured melting point follow.

- molecule: "Fc1cccc(COc2ccc(Nc3ncnc4cc(C#Cc5ncccn5)sc34)cc2Cl)c1"
  meas.value: "236 to 240 °C"
- molecule: "FC(F)(F)Cn1cc(C#Cc2cccc(OCC3CC3)c2)cn1"
  meas.value: "63 to 65 °C"

Given Cc1ccc(C(=O)c2noc(CC#N)n2)cc1 , state its recorded melting point.
76 to 78 °C

====

reported.endpoint: melting point

See these solved cases before continuing.
- compound: "CC(C)(C)c1ccc(/C=C/C(=O)Nc2ccc3ccn(CCO)c3c2)cc1"
  melting point: "178 °C"
- compound: "CC(=O)c1c(C)c(NC=O)c(C)c2c1OCC2c1ccc(C(C)C)cc1 (centres undefined)"
  melting point: "177 to 179 °C"
- compound: "COC(=O)c1cnc(F)cn1"
  melting point: "55.6 to 56.7 °C"

I would be grateful if you could share the reported melting point for CCC(=O)OCc1ccc2oc(=O)c(C(=O)Oc3cncc(Cl)c3)cc2c1 .
156 to 158 °C

// same read-out, input: COC(=O)C(C)(C)CC(=O)c1ccc(-n2ccnc2)cc1
89 to 93 °C

One more compound: CCCC1(C)OC(=O)C(c2ccc(F)c(F)c2)=C1c1ccc(S(C)(=O)=O)cc1 (centres undefined)
89 to 90 °C

What do you get for O=c1cc(N2CCOc3ccccc32)oc2c1ccc1ccccc12 ?
78 to 79 °C

Now try O=c1[nH]c2cc(Cl)cc(Cl)c2c(=O)n1Cc1ccccc1Cl .
193 to 198 °C

Request: Cc1nc2c(O[C@@H]3c4ccccc4C[C@H]3O)cc(C(=O)O)cn2c1C (relative stereo)
229 to 231 °C

Repeat for the following compound: O=C(NO)c1ccc(CNC(=O)c2[nH]c(-c3ccccc3)cc2-c2cccc(Br)c2)cc1
145 to 146 °C

What would you report for CC(C)CNC(=O)C1=C(C(=O)Nc2cc(OC3CCC(C)C3)c(Cl)cc2F)CCCC1 (centres undefined) ?
144 to 147 °C

Here is the next compound: CN(C)C(=O)C(C#N)=C1Nc2ccccc2O1
196 °C

Request: N#Cc1ccc(N2C(=O)N(CCO)C3(CCOCC3)C2=O)cc1C(F)(F)F
196 to 197 °C

COc1cc2c(cc1OC)-c1c(C(N)=O)c(-c3cc(C)c(O)c(C)c3)c(C)n1CC2 , same question.
229 to 231 °C

Thanks! And O=C(CCCCOc1ccc(-c2ccc(F)cc2)cc1)NO ?
160 to 162 °C

These entries and their values trace back to a melting point compilation (Tetko et al.; mined from patent text by program, amines drawn as free bases though some values may be those of a salt).
